Sourced from paper PMC5540273

Test system: SNRK;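 note: KINOMEscan kinase panel screen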
condition label: concentration: 1 μM, replicates: in singlicate; n = 1
assay endpoint: %Inh (%)
Field format: number, assumed %, no unit text.

- chem smiles: "Cc1ccc(NC(=O)Nc2cc(C(C)(C)C)nn2-c2ccccc2)cc1"
  target: "SNRK"
  readout unit: "%"
  measured number: 0
- chem smiles: "Cc1ccc(NC(=O)Nc2cccc(Cl)c2)cc1-c1ccc(C(=O)Nc2ccncc2)cc1"
  target: "SNRK"
  readout unit: "%"
  measured number: 2
- chem smiles: "COC(=O)c1c(-c2ccccc2)c2cc(OC)ccc2c(=O)n1Cc1ccccc1"
  target: "SNRK"
  readout unit: "%"
  measured number: 1
- chem smiles: "Fc1cc(Cl)ccc1Nc1ccnc2cc(I)ccc12"
  target: "SNRK"
  readout unit: "%"
  measured number: 0

Lab note: next compound to report on.
Lab note: compound O=C1NC(=O)C(N2CCc3ccccc32)=C1c1ccccc1Cl tested on SNRK; recorded %Inh was 1
